- METHOD: Tmax in colon of Sprague-Dawley rat at 10 mg/kg, po bid administered 7 doses over 3.5 days
- Assay type: ADME, organism-based
MEASURED_PARAMETER: Tmax (h)
Answer in h, number only, no unit symbol.

Entry CCOc1cc(=O)[nH]cc1-c1ccc(CC(=O)Nc2cc(C(C)(C)C(F)(F)F)on2)c(F)c1 ; Tmax = 7

* * *

- METHOD: Tmax in colon contents of Sprague-Dawley rat at 10 mg/kg, po bid administered 7 doses over 3.5 days
- Type: ADME, organism-based, Colon content
MEASURED_PARAMETER: Tmax (h)
Answer in h, number only, no unit symbol.

Entry CCOc1cc(=O)[nH]cc1-c1ccc(CC(=O)Nc2cc(C(C)(C)C(F)(F)F)on2)c(F)c1 ; Tmax = 7

* * *

- TARGET_OR_TEST_SYSTEM: Vascular endothelial growth factor receptor 2 (Homo sapiens, UniProt P35968)
- Sequence (P35968 whole entry): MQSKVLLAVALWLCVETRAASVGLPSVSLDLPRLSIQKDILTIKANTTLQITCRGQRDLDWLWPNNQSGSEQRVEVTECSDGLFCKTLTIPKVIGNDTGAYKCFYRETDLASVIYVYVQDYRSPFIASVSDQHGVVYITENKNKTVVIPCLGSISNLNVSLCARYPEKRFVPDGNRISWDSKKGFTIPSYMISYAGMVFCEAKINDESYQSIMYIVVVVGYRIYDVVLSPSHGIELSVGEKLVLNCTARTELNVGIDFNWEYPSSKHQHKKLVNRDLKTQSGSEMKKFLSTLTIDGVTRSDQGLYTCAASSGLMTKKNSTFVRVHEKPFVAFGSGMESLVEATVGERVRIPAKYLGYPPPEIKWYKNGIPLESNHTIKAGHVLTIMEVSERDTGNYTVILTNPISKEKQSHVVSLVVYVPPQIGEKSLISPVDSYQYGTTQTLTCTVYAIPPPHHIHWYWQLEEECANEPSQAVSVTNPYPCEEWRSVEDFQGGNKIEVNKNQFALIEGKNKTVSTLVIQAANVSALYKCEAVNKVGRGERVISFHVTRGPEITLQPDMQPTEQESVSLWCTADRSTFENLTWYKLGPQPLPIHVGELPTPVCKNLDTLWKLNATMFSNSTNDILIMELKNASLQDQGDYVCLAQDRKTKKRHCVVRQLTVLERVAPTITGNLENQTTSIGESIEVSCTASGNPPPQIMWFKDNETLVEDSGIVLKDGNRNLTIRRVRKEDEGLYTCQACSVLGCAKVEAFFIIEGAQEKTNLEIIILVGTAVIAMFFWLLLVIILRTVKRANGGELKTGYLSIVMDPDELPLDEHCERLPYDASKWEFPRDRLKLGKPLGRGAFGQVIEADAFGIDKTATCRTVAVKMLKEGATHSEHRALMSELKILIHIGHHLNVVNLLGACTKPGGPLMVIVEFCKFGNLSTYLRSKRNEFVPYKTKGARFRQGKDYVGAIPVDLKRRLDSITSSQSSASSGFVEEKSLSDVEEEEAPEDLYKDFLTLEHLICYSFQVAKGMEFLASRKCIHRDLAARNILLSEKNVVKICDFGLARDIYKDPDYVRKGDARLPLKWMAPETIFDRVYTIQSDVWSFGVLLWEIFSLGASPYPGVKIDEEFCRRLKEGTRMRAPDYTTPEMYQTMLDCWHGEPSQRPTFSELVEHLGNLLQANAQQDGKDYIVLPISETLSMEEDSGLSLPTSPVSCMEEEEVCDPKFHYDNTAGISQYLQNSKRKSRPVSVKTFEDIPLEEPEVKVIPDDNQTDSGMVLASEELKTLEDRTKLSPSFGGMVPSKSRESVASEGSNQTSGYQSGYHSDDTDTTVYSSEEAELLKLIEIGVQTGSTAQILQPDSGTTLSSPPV
MEASURED_PARAMETER: IC50

Entry CCN1CCN(Cc2ccc(NC(=O)Nc3ccc(-c4ccnc(NC)c4)cc3)cc2C(F)(F)F)CC1 ; IC50 = > 1000 nM

* * *

- METHOD: Cmax in ileum of Sprague-Dawley rat at 10 mg/kg, po bid administered 7 doses over 3.5 days
- Format: ADME, organism-based
- Design: dose 10 mg/kg, route oral
MEASURED_PARAMETER: Cmax
Quick note: unit goes after the number.

Entry CCOc1cc(=O)[nH]cc1-c1ccc(CC(=O)Nc2cc(C(C)(C)C(F)(F)F)on2)c(F)c1 ; Cmax = 5520 ng/mL

* * *

- System: Salmonella typhimurium
- METHOD: Genotoxicity in Salmonella typhimurium TA98 by Ames test
- Assay type: toxicity, organism-based
- REPORTED_CONDITIONS: salmonella enterica subsp. enterica serovar typhimurium
MEASURED_PARAMETER: Activity

Here is how some compounds turned out for Activity.
CCOc1cc(-c2ccc(N)c(F)c2)c[nH]c1=O : Toxic
CCN1CCN(Cc2ccc(N)cc2C(F)(F)F)CC1 : Toxic
CCOc1cc(-c2ccc(N)cc2)c[nH]c1=O : Toxic
CCOc1cc(=O)[nH]cc1-c1ccc(CC(=O)Nc2cc(C(C)(C)C(F)(F)F)on2)c(F)c1 : Non-Toxic
CC(C)(c1cc(N)no1)C(F)(F)F : Non-Toxic

Turning now to a further record.
Entry COc1cc(-c2ccc(N)c(F)c2)c[nH]c1=O ; Activity = Toxic

* * *

- METHOD: Cmax in duodenum of Sprague-Dawley rat at 10 mg/kg, po bid administered 7 doses over 3.5 days
- Format: ADME, organism-based
- Set-up: dose 10 mg/kg, route oral
MEASURED_PARAMETER: Cmax (ng/mL)
Answer in ng/mL, number only, no unit symbol.

Entry CCOc1cc(=O)[nH]cc1-c1ccc(CC(=O)Nc2cc(C(C)(C)C(F)(F)F)on2)c(F)c1 ; Cmax = 15700

* * *

- METHOD: Tmax in ileum of Sprague-Dawley rat at 10 mg/kg, po bid administered 7 doses over 3.5 days
- Format: ADME, organism-based
MEASURED_PARAMETER: Tmax (h)
Answer in h, number only, no unit symbol.

Entry CCOc1cc(=O)[nH]cc1-c1ccc(CC(=O)Nc2cc(C(C)(C)C(F)(F)F)on2)c(F)c1 ; Tmax = 2

* * *

- METHOD: Cmax in jejunum of Sprague-Dawley rat at 10 mg/kg, po bid administered 7 doses over 3.5 days
- Type: ADME, organism-based
- Design: dose 10 mg/kg, route oral
MEASURED_PARAMETER: Cmax (ng/mL)
Answer in ng/mL, number only, no unit symbol.

Entry CCOc1cc(=O)[nH]cc1-c1ccc(CC(=O)Nc2cc(C(C)(C)C(F)(F)F)on2)c(F)c1 ; Cmax = 12800
